# IC50 values compiled below
Biological target: Anthrax toxin receptor 2 (Homo sapiens, UniProt P58335, C178A/R40C)
Sequence (P58335 whole entry, looked up, stated change not applied): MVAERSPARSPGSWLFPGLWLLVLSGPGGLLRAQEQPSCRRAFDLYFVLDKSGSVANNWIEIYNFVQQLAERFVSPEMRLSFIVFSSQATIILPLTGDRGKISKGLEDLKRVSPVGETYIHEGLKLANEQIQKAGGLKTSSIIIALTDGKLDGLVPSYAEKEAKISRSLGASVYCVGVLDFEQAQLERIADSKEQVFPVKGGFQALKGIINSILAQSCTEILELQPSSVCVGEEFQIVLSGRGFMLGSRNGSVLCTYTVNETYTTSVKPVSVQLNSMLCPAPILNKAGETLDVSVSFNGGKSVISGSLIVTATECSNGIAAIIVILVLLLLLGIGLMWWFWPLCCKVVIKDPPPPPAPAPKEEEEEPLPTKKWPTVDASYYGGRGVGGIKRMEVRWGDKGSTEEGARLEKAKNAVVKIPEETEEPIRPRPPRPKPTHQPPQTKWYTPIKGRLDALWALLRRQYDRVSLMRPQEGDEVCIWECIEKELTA
Assay: Inhibition of AF488-labelled PA binding to AF546- labelled GST-tagged CMG2 R40C/C178A double mutant (unknown origin) expressed in Escherichia coli BL21 DE3 measured after 4 hrs by FRET assay
Provide the reading as a plain figure in nM.

Report IC50 for O=C(OC[C@H]1O[C@@H](OC(=O)c2cc(O)c(O)c(O)c2)[C@@H](OC(=O)c2cc(O)c(O)c(O)c2)[C@@H](OC(=O)c2cc(O)c(O)c(O)c2)[C@@H]1OC(=O)c1cc(O)c(O)c(O)c1)c1cc(O)c(O)c(O)c1 please.
58

Report IC50 for O=C(OC[C@H]1O[C@@H](OC(=O)c2ccc(O)c(O)c2O)[C@@H](OC(=O)c2ccc(O)c(O)c2O)[C@@H](OC(=O)c2ccc(O)c(O)c2O)[C@@H]1OC(=O)c1ccc(O)c(O)c1O)c1ccc(O)c(O)c1O please.
132

Report IC50 for O=C(OC[C@H]1O[C@H](OC(=O)c2cc(O)c(O)c(O)c2)[C@@H](OC(=O)c2cc(O)c(O)c(O)c2)[C@@H](OC(=O)c2cc(O)c(O)c(O)c2)[C@@H]1OC(=O)c1cc(O)c(O)c(O)c1)c1cc(O)c(O)c(O)c1 please.
100

Report IC50 for O=C(OC[C@H]1O[C@@H](OC(=O)c2cc(O)c(O)c(O)c2)[C@H](OC(=O)c2cc(O)c(O)c(O)c2)[C@@H](OC(=O)c2cc(O)c(O)c(O)c2)[C@@H]1OC(=O)c1cc(O)c(O)c(O)c1)c1cc(O)c(O)c(O)c1 please.
607

----------
# IC50 values compiled below
Molecular target: Anthrax toxin receptor 2 (Homo sapiens, UniProt P58335, C178A/R40C)
Test: Inhibition of AF488-labelled PA binding to AF546- labelled GST-tagged CMG2 R40C/C178A double mutant (unknown origin) expressed in Escherichia coli BL21 DE3 measured after 4 hrs by FRET assay
Provide the reading as a plain figure in µM.

>>> assay_result("O=C(OC[C@H]1O[C@H](O[C@H]2[C@H](OC(=O)c3ccc(O)c(O)c3O)[C@@H](OC(=O)c3ccc(O)c(O)c3O)[C@H](OC(=O)c3ccc(O)c(O)c3O)O[C@@H]2COC(=O)c2ccc(O)c(O)c2O)[C@H](OC(=O)c2ccc(O)c(O)c2O)[C@@H](OC(=O)c2ccc(O)c(O)c2O)[C@@H]1OC(=O)c1ccc(O)c(O)c1O)c1ccc(O)c(O)c1O")
1.16

Report IC50 for O=C(OC[C@H]1OC(OC(=O)c2ccc(O)c(O)c2O)[C@H](OC(=O)c2ccc(O)c(O)c2O)[C@@H](OC(=O)c2ccc(O)c(O)c2O)[C@@H]1OC(=O)c1ccc(O)c(O)c1O)c1ccc(O)c(O)c1O (some centres undefined) please.
3.42

----------
Biological target: Anthrax toxin receptor 2 (Homo sapiens, UniProt P58335, C178A/R40C)
Assay: Inhibition of AF488-labelled PA binding to AF546- labelled GST-tagged CMG2 R40C/C178A double mutant (unknown origin) expressed in Escherichia coli BL21 DE3 measured after 4 hrs by FRET assay
pIC50: −log10 of the molar value.
MEASURED_PROPERTY: pIC50

Example cases with answers are listed next.
>>> assay_result("O=C(OC[C@H]1O[C@H](O[C@H]2O[C@H](COC(=O)c3ccc(O)c(O)c3O)[C@@H](OC(=O)c3ccc(O)c(O)c3O)[C@H](OC(=O)c3ccc(O)c(O)c3O)[C@H]2OC(=O)c2ccc(O)c(O)c2O)[C@@H](OC(=O)c2ccc(O)c(O)c2O)[C@@H](OC(=O)c2ccc(O)c(O)c2O)[C@@H]1OC(=O)c1ccc(O)c(O)c1O)c1ccc(O)c(O)c1O")
"< 5.00"
>>> assay_result("O=C(OCC(OC(=O)c1ccc(O)c(O)c1O)[C@@H]1O[C@H](OC(=O)c2ccc(O)c(O)c2O)[C@H](OC(=O)c2ccc(O)c(O)c2O)[C@H]1OC(=O)c1ccc(O)c(O)c1O)c1ccc(O)c(O)c1O (single isomer, unassigned)")
"< 5.00"
>>> assay_result("O=C(OC[C@H]1O[C@H](O[C@H]2O[C@H](COC(=O)c3cc(O)c(O)c(O)c3)[C@@H](OC(=O)c3cc(O)c(O)c(O)c3)[C@H](OC(=O)c3cc(O)c(O)c(O)c3)[C@H]2OC(=O)c2cc(O)c(O)c(O)c2)[C@@H](OC(=O)c2cc(O)c(O)c(O)c2)[C@@H](OC(=O)c2cc(O)c(O)c(O)c2)[C@@H]1OC(=O)c1cc(O)c(O)c(O)c1)c1cc(O)c(O)c(O)c1")
"< 5.00"

For the next question, use this compound.
Report pIC50 for O=C(O[C@H]1OC[C@@H](OC(=O)c2ccc(O)c(O)c2O)[C@@H](OC(=O)c2ccc(O)c(O)c2O)[C@H]1OC(=O)c1ccc(O)c(O)c1O)c1ccc(O)c(O)c1O please.
< 5.00
